// provenance: BigSolDB 2.1

Condition notes: in ethanol, 323.15 K
Measured endpoint: solubility (mole fraction)

smi=CO/C=C(/C(=O)OC)c1ccccc1Oc1cc(Oc2ccccc2C#N)ncn1 measured_endpoint="solubility (mole fraction)" observed_value=0.0056

----------
Condition notes: in n-propanol, 318.15 K
Measured endpoint: solubility (mole fraction)

smi=CO/C=C(/C(=O)OC)c1ccccc1Oc1cc(Oc2ccccc2C#N)ncn1 observed_value=0.00387

----------
Condition notes: in n-butanol, 298.15 K
Measured endpoint: solubility (mole fraction)

smi=CO/C=C(/C(=O)OC)c1ccccc1Oc1cc(Oc2ccccc2C#N)ncn1 measured_endpoint="solubility (mole fraction)" observed_value=0.000955

----------
Condition notes: in n-propanol, 288.15 K
Measured endpoint: solubility (mole fraction)

smi=CO/C=C(/C(=O)OC)c1ccccc1Oc1cc(Oc2ccccc2C#N)ncn1 measured_endpoint="solubility (mole fraction)" observed_value=0.000654

----------
Condition notes: in isobutanol, 298.15 K
Measured endpoint: solubility (mole fraction)

smi=CO/C=C(/C(=O)OC)c1ccccc1Oc1cc(Oc2ccccc2C#N)ncn1 measured_endpoint="solubility (mole fraction)" observed_value=0.00084

----------
Condition notes: in isobutanol, 323.15 K
Measured endpoint: solubility (mole fraction)

smi=CO/C=C(/C(=O)OC)c1ccccc1Oc1cc(Oc2ccccc2C#N)ncn1 measured_endpoint="solubility (mole fraction)" observed_value=0.00441

----------
Condition notes: in ethyl acetate, 298.15 K
Measured endpoint: solubility (mole fraction)

smi=CO/C=C(/C(=O)OC)c1ccccc1Oc1cc(Oc2ccccc2C#N)ncn1 observed_value=0.0319

----------
Condition notes: in isobutanol, 303.15 K
Measured endpoint: solubility (mole fraction)

smi=CO/C=C(/C(=O)OC)c1ccccc1Oc1cc(Oc2ccccc2C#N)ncn1 measured_endpoint="solubility (mole fraction)" observed_value=0.00129

----------
Condition notes: in ethanol, 303.15 K
Measured endpoint: solubility (mole fraction)

smi=CO/C=C(/C(=O)OC)c1ccccc1Oc1cc(Oc2ccccc2C#N)ncn1 measured_endpoint="solubility (mole fraction)" observed_value=0.00171

----------
Condition notes: in isopropanol, 328.15 K
Measured endpoint: solubility (mole fraction)

smi=CO/C=C(/C(=O)OC)c1ccccc1Oc1cc(Oc2ccccc2C#N)ncn1 observed_value=0.00452

----------
Condition notes: in ethyl acetate, 308.15 K
Measured endpoint: solubility (mole fraction)

smi=CO/C=C(/C(=O)OC)c1ccccc1Oc1cc(Oc2ccccc2C#N)ncn1 observed_value=0.0473

----------
Condition notes: in n-propanol, 313.15 K
Measured endpoint: solubility (mole fraction)

smi=CO/C=C(/C(=O)OC)c1ccccc1Oc1cc(Oc2ccccc2C#N)ncn1 observed_value=0.00277

----------
Condition notes: in ethyl acetate, 323.15 K
Measured endpoint: solubility (mole fraction)

smi=CO/C=C(/C(=O)OC)c1ccccc1Oc1cc(Oc2ccccc2C#N)ncn1 observed_value=0.0879

----------
Condition notes: in ethanol, 288.15 K
Measured endpoint: solubility (mole fraction)

smi=CO/C=C(/C(=O)OC)c1ccccc1Oc1cc(Oc2ccccc2C#N)ncn1 observed_value=0.000747

----------
Condition notes: in isopropanol, 298.15 K
Measured endpoint: solubility (mole fraction)

smi=CO/C=C(/C(=O)OC)c1ccccc1Oc1cc(Oc2ccccc2C#N)ncn1 measured_endpoint="solubility (mole fraction)" observed_value=0.000649

----------
Condition notes: in ethanol, 298.15 K
Measured endpoint: solubility (mole fraction)

smi=CO/C=C(/C(=O)OC)c1ccccc1Oc1cc(Oc2ccccc2C#N)ncn1 measured_endpoint="solubility (mole fraction)" observed_value=0.00118

----------
Condition notes: in ethyl acetate, 313.15 K
Measured endpoint: solubility (mole fraction)

smi=CO/C=C(/C(=O)OC)c1ccccc1Oc1cc(Oc2ccccc2C#N)ncn1 observed_value=0.059

----------
Condition notes: in methanol, 293.15 K
Measured endpoint: solubility (mole fraction)

smi=CO/C=C(/C(=O)OC)c1ccccc1Oc1cc(Oc2ccccc2C#N)ncn1 observed_value=0.00165
